# system.name: T1, EsCas13d, nuclease-dead (Eubacterium siraeum, UniProt B0MS50, R295A;H300A;R849A;H854A)
# T1 sequence: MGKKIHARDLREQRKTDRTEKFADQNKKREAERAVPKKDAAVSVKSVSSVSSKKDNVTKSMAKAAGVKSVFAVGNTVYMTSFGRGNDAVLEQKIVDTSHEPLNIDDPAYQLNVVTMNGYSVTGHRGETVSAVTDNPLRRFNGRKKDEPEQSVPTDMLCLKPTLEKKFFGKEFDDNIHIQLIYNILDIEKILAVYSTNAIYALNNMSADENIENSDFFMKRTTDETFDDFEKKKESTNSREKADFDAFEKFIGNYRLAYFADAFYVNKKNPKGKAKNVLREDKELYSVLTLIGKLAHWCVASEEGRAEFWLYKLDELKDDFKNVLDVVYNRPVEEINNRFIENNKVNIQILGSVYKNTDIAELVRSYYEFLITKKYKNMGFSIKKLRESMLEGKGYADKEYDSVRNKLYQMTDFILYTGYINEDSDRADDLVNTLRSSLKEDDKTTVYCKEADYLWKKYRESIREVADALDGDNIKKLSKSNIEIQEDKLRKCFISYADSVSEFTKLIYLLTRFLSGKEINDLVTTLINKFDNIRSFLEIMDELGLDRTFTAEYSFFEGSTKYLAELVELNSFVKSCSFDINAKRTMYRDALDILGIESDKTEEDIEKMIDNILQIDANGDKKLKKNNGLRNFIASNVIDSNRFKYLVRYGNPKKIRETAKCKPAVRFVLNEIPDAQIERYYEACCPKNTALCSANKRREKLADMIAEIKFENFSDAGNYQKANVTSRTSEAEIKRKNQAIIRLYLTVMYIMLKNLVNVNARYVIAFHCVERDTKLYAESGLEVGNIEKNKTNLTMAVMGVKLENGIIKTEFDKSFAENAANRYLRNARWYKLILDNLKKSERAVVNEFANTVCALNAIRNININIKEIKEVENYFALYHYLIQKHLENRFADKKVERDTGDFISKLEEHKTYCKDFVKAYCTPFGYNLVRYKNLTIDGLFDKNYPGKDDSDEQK
# measurement.protocol: crRNA (strand 1, pre-loaded); Mg2+; 40 mM Tris-HCl pH 7.5, 150 mM NaCl, 6 mM MgCl2, 1 mM DTT, 0.1% Tween-20, 0.2 mg/ml BSA; 25 C; 10 min per concentration, then washed
# run.parameters: tags: His6-TwinStrep-SUMO cleaved; N-terminal SNAP kept (SNAP-Surface 488); label: 3' end held by stalled T7 RNA polymerase
Doc: threshold 20 nM (exclusive). Items with Kd beneath it return Yes; others return No.

A selection of reference data follows.
(Q) Please let me know if target 1 insC 3' of 13,insG 3' of 9 (mixed) RNA 1: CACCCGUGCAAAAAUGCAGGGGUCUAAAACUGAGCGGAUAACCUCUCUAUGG RNA 2: GGGAAUGGAUCCACAUCUACGAAUUCGUACCAUAGAGAGCGUUAGUCCGCUCACCGAGAUCGGAAGAGCACACGU shows Kd below 20 nM.
(A) Yes

(Q) Bench note: check whether target 2 MT 5'PFS UAU 3'PFS UGU (mixed) RNA 1: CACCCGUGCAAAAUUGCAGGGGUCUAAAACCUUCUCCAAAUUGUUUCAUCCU RNA 2: GGGAAUGGAUCCACAUCUACGAAUUCUAUAGGAUGAAACAAUUUGGAGAAGUGUAGAUCGGAAGAGCACACGU shows Kd below 20 nM
(A) No

(Q) # check: Kd < 20 nM for target 1 C6G,G17A (mixed) RNA 1: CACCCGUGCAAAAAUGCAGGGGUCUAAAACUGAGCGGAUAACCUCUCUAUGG RNA 2: GGGAAUGGAUCCACAUCUACGAAUUCGUACCAUAAAGAGGUUAUCGGCUCACCGAGAUCGGAAGAGCACACGU
(A) No

(Q) Field: below-cutoff. Rule: recorded Kd strictly less than 20 nM. Subject: target 1 MT 5'PFS GUU 3'PFS GGG (mixed) RNA 1: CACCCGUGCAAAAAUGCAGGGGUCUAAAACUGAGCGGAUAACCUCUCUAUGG RNA 2: GGGAAUGGAUCCACAUCUACGAAUUCGUUCCAUAGAGAGGUUAUCCGCUCAGGGAGAUCGGAAGAGCACACGU
(A) No

(Q) Threshold test, Kd < 20 nM: target 1 insA 3' of 17,insC 3' of 15 (mixed) RNA 1: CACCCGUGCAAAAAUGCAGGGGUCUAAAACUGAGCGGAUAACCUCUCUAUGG RNA 2: GGGAAUGGAUCCACAUCUACGAAUUCGUACCAUAGAAGCAGGUUAUCCGCUCACCGAGAUCGGAAGAGCACACGU
(A) Yes

Further cases:
(Q) Is 20 nM strictly greater than the binder's reported Kd? binder: target 1 MT 5'PFS UAG 3'PFS CGG (mixed) RNA 1: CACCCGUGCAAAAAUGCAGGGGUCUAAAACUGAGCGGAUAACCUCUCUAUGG RNA 2: GGGAAUGGAUCCACAUCUACGAAUUCUAGCCAUAGAGAGGUUAUCCGCUCACGGAGAUCGGAAGAGCACACGU
(A) No

(Q) Does the reported Kd of the following binder sit strictly below 20 nM? target 1 C4G,G13A (mixed) RNA 1: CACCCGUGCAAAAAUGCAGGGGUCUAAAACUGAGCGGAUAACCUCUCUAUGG RNA 2: GGGAAUGGAUCCACAUCUACGAAUUCGUACCAUAGAGAAGUUAUCCGGUCACCGAGAUCGGAAGAGCACACGU
(A) Yes

(Q) Field: below-cutoff. Rule: recorded Kd strictly less than 20 nM. Subject: target 1 insG 3' of 9 (mixed) RNA 1: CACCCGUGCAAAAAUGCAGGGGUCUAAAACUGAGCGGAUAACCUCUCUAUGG RNA 2: GGGAAUGGAUCCACAUCUACGAAUUCGUACCAUAGAGAGGUUAGUCCGCUCACCGAGAUCGGAAGAGCACACGU
(A) Yes
